Entry source: ChEMBL document CHEMBL1157776

- studySystem: UniProt P11387
- protocolText: Inhibition of human recombinant TOP1-mediated relaxation of supercoiled Escherichia coli pBR322 DNA at 20 uM after 30 mins by transillumination
measuredAttribute: inhibition (%)
Express your answer in %, writing the number without its unit.

- structureString: "Oc1cccc(-c2cc(-c3ccccc3)nc(-c3ccncc3)c2)c1"
  measuredAttribute: "inhibition"
  quantitativeReadout: 0.9
- structureString: "Oc1ccc(-c2cc(-c3ccccc3)cc(-c3ccccc3)n2)cc1"
  measuredAttribute: "inhibition"
  quantitativeReadout: 43.6

State measured inhibition of the molecule `Oc1ccc(-c2cc(-c3ccccc3)cc(-c3cccnc3)n2)cc1` with UniProt P11387. 0.9

Answer with inhibition of `Oc1ccc(-c2cc(-c3ccccc3)nc(-c3ccncc3)c2)cc1` measured for UniProt P11387. 5.8

State inhibition (UniProt P11387) of `Oc1cccc(-c2cc(-c3ccccc3)nc(-c3ccccc3)c2)c1` . 0

====

- Tested on: HL-60
- protocolText: Cytotoxicity against human HL60 cells after 2 days by automatic ELISA reader system
- Type: functional, cell-based
- particulars: HL-60, 48 h
measuredAttribute: IC50 (µM)
Reply with just the number (in µM).

Here's what some known entries look like.
- molecule: "Oc1cccc(-c2cc(-c3ccccc3)cc(-c3ccccc3)n2)c1"
  quantitativeReadout: 11.5
- molecule: "Oc1cccc(-c2cc(-c3ccccc3)cc(-c3cccs3)n2)c1"
  quantitativeReadout: 14.1
- molecule: "Oc1ccc(-c2cc(-c3ccccc3)cc(-c3ccc(O)cc3)n2)cc1"
  quantitativeReadout: 5.7

Provide IC50, recorded with HL-60, of `Oc1ccc(-c2cc(-c3ccccc3)cc(-c3ccco3)n2)cc1` 3.3

Recall the reported IC50 of `Oc1cccc(-c2cc(-c3ccccc3)nc(-c3cccs3)c2)c1` on HL-60 and write it down. 18.9

Please report IC50 with HL-60 for item `Oc1ccc(-c2cc(-c3ccccc3)nc(-c3ccncc3)c2)cc1` . 1.4

Provide HL-60 IC50 reading for `Oc1ccc(-c2cc(-c3ccccc3)cc(-c3cccnc3)n2)cc1` . 4.1

Answer briefly: IC50 recorded on HL-60 for `Oc1cccc(-c2cc(-c3ccccc3)nc(-c3ccccn3)c2)c1` 15.1

====

- studySystem: DNA topoisomerase 2-alpha (Homo sapiens)
- protocolText: Inhibition of human recombinant TOP2A-mediated relaxation of supercoiled Escherichia coli pBR322 DNA at 100 uM after 30 mins by transillumination
Could you label it y if measured inhibition is 50% or higher, and n otherwise?

Consider the following illustrative entries.
- structureString: "Oc1ccc(-c2cc(-c3ccccc3)cc(-c3ccsc3)n2)cc1"
  group: "n"
- structureString: "Oc1ccc(-c2cc(-c3ccccc3)nc(-c3ccncc3)c2)cc1"
  group: "n"
- structureString: "Oc1cccc(-c2cc(-c3ccccc3)cc(-c3ccsc3)n2)c1"
  group: "y"

Please turn your attention to the following entry.
inhibition >= 50% for `Oc1ccc(-c2cc(-c3ccccc3)cc(-c3ccco3)n2)cc1` ? n

====

- studySystem: DNA topoisomerase 1 (Homo sapiens) (UniProt P11387)
- Sequence (P11387 whole entry): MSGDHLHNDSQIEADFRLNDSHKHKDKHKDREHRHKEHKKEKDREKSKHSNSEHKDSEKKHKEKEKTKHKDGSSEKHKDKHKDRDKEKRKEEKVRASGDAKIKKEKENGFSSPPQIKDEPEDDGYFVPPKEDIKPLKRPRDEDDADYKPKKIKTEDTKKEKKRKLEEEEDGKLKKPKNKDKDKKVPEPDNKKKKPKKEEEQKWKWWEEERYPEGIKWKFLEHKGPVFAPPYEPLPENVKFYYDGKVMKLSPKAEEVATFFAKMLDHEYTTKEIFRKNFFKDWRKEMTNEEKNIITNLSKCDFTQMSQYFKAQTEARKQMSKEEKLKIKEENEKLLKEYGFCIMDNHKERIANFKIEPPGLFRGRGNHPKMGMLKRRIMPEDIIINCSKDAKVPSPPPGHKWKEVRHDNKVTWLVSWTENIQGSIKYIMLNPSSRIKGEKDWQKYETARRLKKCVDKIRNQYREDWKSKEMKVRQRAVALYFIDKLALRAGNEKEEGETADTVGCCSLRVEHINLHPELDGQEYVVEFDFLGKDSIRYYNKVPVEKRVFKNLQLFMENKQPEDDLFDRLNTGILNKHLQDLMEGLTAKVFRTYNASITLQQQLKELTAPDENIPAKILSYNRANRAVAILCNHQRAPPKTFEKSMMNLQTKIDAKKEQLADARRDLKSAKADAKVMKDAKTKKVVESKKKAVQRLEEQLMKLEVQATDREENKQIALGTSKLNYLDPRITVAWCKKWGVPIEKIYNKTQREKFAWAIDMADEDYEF
- protocolText: Inhibition of human recombinant TOP1-mediated relaxation of supercoiled Escherichia coli pBR322 DNA at 100 uM after 30 mins by transillumination
measuredAttribute: inhibition (%)
The figure you give is taken to be in %; do not add the unit.

Quickly give me recorded inhibition for `Oc1cccc(-c2cc(-c3ccccc3)cc(-c3ccncc3)n2)c1` 70.4
